# subjectOfTest: Methionine aminopeptidase (Escherichia coli K-12)
# Sequence (P0AE18 whole entry): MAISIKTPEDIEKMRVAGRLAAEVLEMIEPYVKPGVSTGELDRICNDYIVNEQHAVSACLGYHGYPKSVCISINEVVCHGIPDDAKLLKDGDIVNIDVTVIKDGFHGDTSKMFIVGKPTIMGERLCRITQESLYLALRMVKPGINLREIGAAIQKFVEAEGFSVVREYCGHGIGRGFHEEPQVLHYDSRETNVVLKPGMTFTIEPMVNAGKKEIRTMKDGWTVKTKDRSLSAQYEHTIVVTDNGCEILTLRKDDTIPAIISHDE
# assay: Inhibitory activity against Fe(II) form of Escherichia coli MetAP
pIC50: −log10 of the molar value.
So I've got a bunch of molecules here, and I need their pIC50 values.

pIC50 in this record for "O=C(O)c1ccc(-c2ccc(Cl)cc2)o1" : < 3.70

// pIC50 lookup, molecule = "O=C(O)c1ccc(-c2ccccc2F)o1" , result: < 3.70

Given item "NC(=O)c1ccc(-c2ccccc2Cl)o1" , the value recorded as its pIC50 is < 3.70

Record "OCc1ccc(-c2ccccc2Cl)o1" , field pIC50: < 3.70

What the record says about "COC(=O)c1ccccc1-c1ccc(C(=O)O)o1" : pIC50 is < 3.70

The recorded pIC50 for "Cc1cccc(-c2ccc(C(=O)O)o2)c1Cl" is 3.71

Form field pIC50, entry "O=C(O)c1ccc(-c2cc([N+](=O)[O-])ccc2F)o1" : 3.70

Sample "O=C(O)c1ccc(-c2ccccc2[N+](=O)[O-])o1" ; pIC50 observed: 3.75

----------
# subjectOfTest: Methionine aminopeptidase (Escherichia coli K-12, UniProt P0AE18)
# assay: Inhibitory activity against Ni(II) form of Escherichia coli MetAP
outcomeMeasure: IC50 (µM)
Express the result in µM but write the number alone.

The molecule identified as "O=C(O)c1ccc(-c2ccccc2[N+](=O)[O-])o1" registered its IC50 at 175

IC50 reading for "N#CCc1ccc(-c2ccccc2Cl)o1" : 56.3

The molecule listed as "O=C(O)c1ccc(Cc2ccccc2)o1" has a reported IC50 of 67.5

IC50 recorded for this molecule, "NNC(=O)c1ccc(-c2ccccc2Cl)o1" , is 5.78

GET /value?item= "O=C(O)c1ccc(-c2ccccc2)o1" &field=IC50 returns 195

Looking up "O=C(NO)c1ccc(Cc2ccccc2Cl)o1" , I found its IC50 recorded as 107
